TARGET ENTITY: Sphingosine 1-phosphate receptor 3 (Homo sapiens, UniProt Q99500)
Sequence (Q99500 whole entry): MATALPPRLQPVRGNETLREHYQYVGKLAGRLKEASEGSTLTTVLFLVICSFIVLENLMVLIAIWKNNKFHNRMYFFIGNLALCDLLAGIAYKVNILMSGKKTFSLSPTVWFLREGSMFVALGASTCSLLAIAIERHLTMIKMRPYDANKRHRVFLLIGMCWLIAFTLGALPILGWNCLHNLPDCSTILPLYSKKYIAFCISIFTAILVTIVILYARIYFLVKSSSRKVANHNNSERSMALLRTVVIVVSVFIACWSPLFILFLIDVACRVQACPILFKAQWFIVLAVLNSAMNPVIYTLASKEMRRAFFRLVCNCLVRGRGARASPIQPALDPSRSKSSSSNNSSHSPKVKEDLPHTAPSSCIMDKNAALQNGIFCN
EXPERIMENTAL DETAILS: Antagonist activity against human S1P3 receptor assessed as inhibition of S1P-induced intracellular calcium mobilization in CHO-K1 cells
pIC50: −log10 of the molar value.
READOUT LABEL: pIC50

COMPOUND: CCCCCCCc1cccc(C2N[C@H](C(=O)O)CS2)c1 (some centres not stated)
READOUT LABEL: pIC50
ENDPOINT RESULT: 5.01
--
COMPOUND: CCCCCCCCCCC1N[C@H](C(=O)O)CS1 (some centres not stated)
READOUT LABEL: pIC50
ENDPOINT RESULT: 4.80
--
COMPOUND: CCCCCCCCOc1ccc(/C(=N\NS(=O)(=O)c2cc(C(=O)O)cc(C(=O)O)c2)c2ccccc2)cc1OC
READOUT LABEL: pIC50
ENDPOINT RESULT: 4.88
--
COMPOUND: CCCCCCCCCCCCCCCCOc1ccc(S(=O)(=O)O)cc1C(=O)O
READOUT LABEL: pIC50
ENDPOINT RESULT: 5.06
--
COMPOUND: CCCCCCCc1ccc(C2N[C@H](C(=O)O)CS2)cc1 (some centres not stated)
READOUT LABEL: pIC50
ENDPOINT RESULT: 4.88

P: CCCCCCCCOc1ccc(/C(=N/NS(=O)(=O)c2cc(C(=O)O)cc(C(=O)O)c2)c2ccccc2)cc1OC
Q: CCCCCCCCCCCCCCCCOc1ccc(/C(=N\NS(=O)(=O)c2cc(C(=O)O)cc(C(=O)O)c2)c2ccccc2)cc1OC
input: Compare the recorded pIC50 of P and Q ; state which is larger. // caller expects the label of the chosen entry
output: Q
